Cited source for all entries: patent US12486267B2

- Target System: human TLR9 (Homo sapiens, UniProt Q9NR96)
- Sequence (Q9NR96 26-1032): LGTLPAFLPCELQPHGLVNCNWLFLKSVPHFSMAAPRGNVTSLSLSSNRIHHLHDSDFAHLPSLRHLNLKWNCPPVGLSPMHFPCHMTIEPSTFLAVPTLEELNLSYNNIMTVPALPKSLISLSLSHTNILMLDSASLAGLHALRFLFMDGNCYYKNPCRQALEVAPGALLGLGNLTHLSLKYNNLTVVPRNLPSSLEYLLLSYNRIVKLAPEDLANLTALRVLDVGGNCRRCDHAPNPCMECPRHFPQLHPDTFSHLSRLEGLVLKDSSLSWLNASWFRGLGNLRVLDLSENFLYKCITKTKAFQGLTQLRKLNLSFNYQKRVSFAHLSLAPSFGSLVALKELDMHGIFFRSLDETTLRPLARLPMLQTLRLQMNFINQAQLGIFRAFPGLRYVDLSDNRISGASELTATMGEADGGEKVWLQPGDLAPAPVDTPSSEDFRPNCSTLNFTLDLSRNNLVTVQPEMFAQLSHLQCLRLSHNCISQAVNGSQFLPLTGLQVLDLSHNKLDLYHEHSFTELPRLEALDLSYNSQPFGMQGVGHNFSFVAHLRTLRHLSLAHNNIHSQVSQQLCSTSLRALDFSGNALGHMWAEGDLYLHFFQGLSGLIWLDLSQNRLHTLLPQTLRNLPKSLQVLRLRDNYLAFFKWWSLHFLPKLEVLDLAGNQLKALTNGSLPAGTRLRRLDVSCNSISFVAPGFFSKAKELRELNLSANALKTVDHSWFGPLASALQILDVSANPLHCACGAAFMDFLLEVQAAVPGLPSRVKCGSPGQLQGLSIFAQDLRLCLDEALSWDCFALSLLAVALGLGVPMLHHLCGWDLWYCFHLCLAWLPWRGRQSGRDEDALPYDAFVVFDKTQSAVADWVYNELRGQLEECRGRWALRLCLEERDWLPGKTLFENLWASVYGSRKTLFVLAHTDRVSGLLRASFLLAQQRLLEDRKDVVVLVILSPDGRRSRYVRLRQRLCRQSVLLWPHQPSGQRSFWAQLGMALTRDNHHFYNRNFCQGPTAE
- Assay Text: TLR9 inhibition reporter assay (HEK-Blue cells, SEAP reporter)
- Experimental Parameters: HEK-Blue cells overexpressing human TLR9; stimulated with ODN2006 5 nM; 22 hour incubation; SEAP readout
Readout Name: IC50 (nM)
Answers are plain numbers, in nM.

- Molecule: "CC(C)N1CCC(N2CCC(c3ccc4nc(-c5ccc(S(C)(=O)=O)cc5)cn4c3F)CC2)CC1 [Example 73]"
  Target System: "human TLR9 (Homo sapiens, UniProt Q9NR96)"
  IC50, nM: 106

Dear colleague, could you send me IC50 for each of the items below? Thanks.
1. CS(=O)(=O)c1ccc(-c2cn3c(n2)CC[C@@H](C2CCN(C4CC5CCC(C4)N5CC4CC4)CC2)C3)cc1 (single isomer, unassigned) [Example 140]
2. COc1ccc(-c2cn3c(n2)CCC(C2CCN(C4CCN(C(C)C)CC4)CC2)C3)cc1OC (single isomer, unassigned) [Example 36]
3. Cc1cc(C2CCN(C3CCN(CC(C)C)CC3)CC2)cn2cc(-c3ccc(S(C)(=O)=O)cc3)nc12 [Example 9]
4. Cc1cc(C2CCN(C3CC4CCC(C3)N4C(C)C)CC2)cn2cc(-c3ccc(S(C)(=O)=O)cc3)nc12 (single isomer, unassigned) [Example 62]

Completion:
352
57
42
98

---

- Target System: human TLR7 (Homo sapiens)
- Sequence (Q9NYK1 27-1049): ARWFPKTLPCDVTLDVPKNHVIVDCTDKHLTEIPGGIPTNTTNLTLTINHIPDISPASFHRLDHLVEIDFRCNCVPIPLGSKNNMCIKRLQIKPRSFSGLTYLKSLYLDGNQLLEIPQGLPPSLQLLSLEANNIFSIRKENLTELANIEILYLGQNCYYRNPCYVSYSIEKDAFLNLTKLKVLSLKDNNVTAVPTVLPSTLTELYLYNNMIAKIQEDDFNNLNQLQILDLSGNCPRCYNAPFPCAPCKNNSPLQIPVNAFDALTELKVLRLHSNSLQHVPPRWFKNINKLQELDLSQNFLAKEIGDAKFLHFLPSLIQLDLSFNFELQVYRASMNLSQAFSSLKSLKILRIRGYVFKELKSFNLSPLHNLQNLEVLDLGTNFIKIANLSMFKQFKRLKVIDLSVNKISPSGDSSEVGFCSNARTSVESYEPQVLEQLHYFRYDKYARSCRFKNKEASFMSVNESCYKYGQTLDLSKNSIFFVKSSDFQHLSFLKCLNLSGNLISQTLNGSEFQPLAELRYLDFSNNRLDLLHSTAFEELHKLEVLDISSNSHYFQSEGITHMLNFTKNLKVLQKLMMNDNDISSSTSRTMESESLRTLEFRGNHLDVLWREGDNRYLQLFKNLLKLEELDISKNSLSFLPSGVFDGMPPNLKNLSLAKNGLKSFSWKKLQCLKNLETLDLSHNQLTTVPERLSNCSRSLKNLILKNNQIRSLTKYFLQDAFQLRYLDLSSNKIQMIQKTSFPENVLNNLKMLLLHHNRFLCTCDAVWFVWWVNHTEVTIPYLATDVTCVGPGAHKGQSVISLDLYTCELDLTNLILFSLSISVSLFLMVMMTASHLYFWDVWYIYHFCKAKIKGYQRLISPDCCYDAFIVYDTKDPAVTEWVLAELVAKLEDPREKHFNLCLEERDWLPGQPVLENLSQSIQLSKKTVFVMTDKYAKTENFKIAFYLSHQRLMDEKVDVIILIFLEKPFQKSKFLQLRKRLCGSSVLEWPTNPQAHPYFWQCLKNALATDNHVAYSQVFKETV
- Assay Text: TLR7 inhibition reporter assay (HEK-Blue cells, SEAP reporter)
- Experimental Parameters: HEK-Blue cells overexpressing human TLR7; stimulated with gardiquimod 7.5 μM; 22 hour incubation; SEAP readout
Readout Name: pIC50
Answers are plain numbers, as −log10 of the molar value.

Known pIC50 results, listed for orientation:
- Compound: "COc1ccc(-c2cn3cc(C4CCN(C5CC6CCC(C5)N6CC(C)C)CC4)cc(C)c3n2)cc1OC (single isomer, unassigned) [Example 19]"
  Observed Value: 5.62
- Compound: "COc1ccc(-c2cn3cc(C4CCN(C5CC6(C5)CN(CC(C)C)C6)CC4)cc(C)c3n2)cc1OC [Example 15]"
  Observed Value: 4.34
- Compound: "CS(=O)(=O)c1ccc(-c2cn3c(n2)CC[C@H](C2CCN(C4CC5CCC(C4)N5CC4CC4)CC2)C3)cc1 (single isomer, unassigned) [Example 139]"
  Observed Value: 4.97
- Compound: "COc1ccc(-c2cn3c(n2)CCC(C2CCN(C4CC5(C4)CN(C(C)C)C5)CC2)C3)cc1OC (racemic) [Example 45]"
  Observed Value: 5.68
- Compound: "COc1ccc(-c2cn3cc(C4CCN(C5CCN(C6CC6)CC5)CC4)cc(C)c3n2)cc1OC [Example 1]"
  Observed Value: 4.85
- Compound: "COc1ccc(-c2cn3c(n2)CCC(C2CCN(C4CCN(C(=O)C(C)C)CC4)CC2)C3)cc1OC (racemic) [Example 39]"
  Observed Value: 4.37
- Compound: "COc1ccc(-c2cn3c(n2)CCC(C2CCN(C4CCN(C(C)C)CC4)CC2)C3)cc1OC (single isomer, unassigned) [Example 36]"
  Observed Value: 5.11
- Compound: "COc1ccc(-c2cn3c(n2)CC[C@@H](C2CCN(C4CC5CCC(C4)N5C(C)C)CC2)C3)cc1OC (single isomer, unassigned) [Example 137]"
  Observed Value: 5.52
- Compound: "CC(C)CN1CCCC(N2CCC(c3cc(F)c4nc(-c5ccc(S(C)(=O)=O)cc5)cn4c3)CC2)CC1 (single isomer, unassigned) [Example 126]"
  Observed Value: 5.13
- Compound: "COc1ccc(-c2cn3cc(-c4ccc(N5CCN(CC6CC6)CC5)cc4)cc(C)c3n2)cc1OC [Example 95]"
  Observed Value: 6.00

Dear colleague, could you send me pIC50 for each of the items below? Thanks.
1. COc1ccc(-c2cn3c(n2)CCC(C2CCN(C4CCN(CC(C)C)CC4)CC2)C3)cc1OC (single isomer, unassigned) [Example 33]
2. COc1ccc(-c2cn3c(n2)CC[C@@H](C2CCN(C4CC5CCC(C4)N5C(C)C)CC2)C3)cc1OC (single isomer, unassigned) [Example 136]

Completion:
1: 5.51; 2: 4.82

---

- Target System: human TLR8 (Homo sapiens)
- Sequence (Q9NR97 27-1041): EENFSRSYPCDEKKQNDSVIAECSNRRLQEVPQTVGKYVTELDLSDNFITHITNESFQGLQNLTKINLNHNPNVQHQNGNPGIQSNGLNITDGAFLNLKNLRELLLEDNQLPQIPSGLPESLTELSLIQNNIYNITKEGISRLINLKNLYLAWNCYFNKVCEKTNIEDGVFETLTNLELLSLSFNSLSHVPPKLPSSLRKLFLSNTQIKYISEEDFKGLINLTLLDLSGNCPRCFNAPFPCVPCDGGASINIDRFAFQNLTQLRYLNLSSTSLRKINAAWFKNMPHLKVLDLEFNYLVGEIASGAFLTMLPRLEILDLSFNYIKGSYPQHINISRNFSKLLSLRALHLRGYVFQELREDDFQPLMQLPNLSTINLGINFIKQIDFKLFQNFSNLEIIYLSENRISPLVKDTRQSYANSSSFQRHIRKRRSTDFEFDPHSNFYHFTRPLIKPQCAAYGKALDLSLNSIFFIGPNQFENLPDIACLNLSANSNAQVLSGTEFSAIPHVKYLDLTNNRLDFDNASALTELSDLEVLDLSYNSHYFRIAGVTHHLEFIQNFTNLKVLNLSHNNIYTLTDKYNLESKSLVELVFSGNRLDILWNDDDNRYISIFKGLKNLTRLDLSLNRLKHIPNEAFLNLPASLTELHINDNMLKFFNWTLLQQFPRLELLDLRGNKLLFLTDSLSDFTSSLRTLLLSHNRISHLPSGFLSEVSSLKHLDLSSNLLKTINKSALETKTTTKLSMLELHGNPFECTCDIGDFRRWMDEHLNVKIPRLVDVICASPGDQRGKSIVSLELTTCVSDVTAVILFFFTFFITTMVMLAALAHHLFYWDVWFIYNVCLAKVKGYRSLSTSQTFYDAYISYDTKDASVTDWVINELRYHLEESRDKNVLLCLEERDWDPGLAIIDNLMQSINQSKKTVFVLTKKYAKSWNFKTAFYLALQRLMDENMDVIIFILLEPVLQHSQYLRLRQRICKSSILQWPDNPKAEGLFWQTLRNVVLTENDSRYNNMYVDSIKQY
- Assay Text: TLR8 inhibition reporter assay (HEK-Blue cells, SEAP reporter)
- Experimental Parameters: HEK-Blue cells overexpressing human TLR8; stimulated with R848 15.9 μM; 22 hour incubation; SEAP readout
pIC50: −log10 of the molar value.
Readout Name: pIC50

Known pIC50 results, listed for orientation:
- Compound: "CS(=O)(=O)c1ccc(-c2cn3cc(C4CCN(C5CCCN(CC6CC6)CC5)CC4)cc(F)c3n2)cc1 (single isomer, unassigned) [Example 128]"
  Target System: "human TLR8 (Homo sapiens)"
  pIC50: "< 4.30"
- Compound: "COc1ccc(-c2cn3cc(C4C[C@H]5CC[C@@H](C4)N5C4CCN(C(C)C)CC4)cc(C)c3n2)cc1OC (mixture of isomers) [Example 30]"
  Target System: "human TLR8 (Homo sapiens)"
  pIC50: "< 4.30"
- Compound: "COc1ccc(-c2cn3c(n2)CCC(C2CCN(C4CC5(C4)CN(CC(C)C)C5)CC2)C3)cc1OC (racemic) [Example 52]"
  Target System: "human TLR8 (Homo sapiens)"
  pIC50: "< 4.30"
- Compound: "COc1ccc(-c2cn3c(n2)CCC(C2CCN(C4CC5(C4)CN(CC4CC4)C5)CC2)C3)cc1OC (racemic) [Example 51]"
  Target System: "human TLR8 (Homo sapiens)"
  pIC50: "< 4.30"
- Compound: "COc1ccc(-c2cn3cc(C4CCN(C5CC6CCC(C5)N6C(C)C)CC4)cc(C)c3n2)cc1OC (single isomer, unassigned) [Example 22]"
  Target System: "human TLR8 (Homo sapiens)"
  pIC50: "< 4.30"
- Compound: "COc1ccc(-c2cn3cc(C4CCN(C5CCN(C(C)C)CC5)CC4)ccc3n2)cc1OC [Example 11]"
  Target System: "human TLR8 (Homo sapiens)"
  pIC50: "< 4.30"

Below: the item to evaluate.
Prompt: Input Cc1cc(C2CCN(C3CCN(C(C)C)CC3)CC2)cn2nc(-c3ccc(S(C)(=O)=O)cc3)nc12 [Example 162] , output reported pIC50.
Completion: < 4.30

---

- Target System: human TLR9 (Homo sapiens, UniProt Q9NR96)
- Assay Text: TLR9 inhibition reporter assay (HEK-Blue cells, SEAP reporter)
- Experimental Parameters: HEK-Blue cells overexpressing human TLR9; stimulated with ODN2006 5 nM; 22 hour incubation; SEAP readout
- Description: TLR7/8/9 Inhibition Reporter Assays HEK-Blue™-cells (Invivogen) overexpressing human TLR7, TLR8 or TLR9 receptors were used for screening inhibitors of these receptors using an inducible SEAP (secreted embryonic alkaline phosphatase) reporter gene under the control of the […] minimal promoter fused to five NF-κB and AP-1-binding sites. […]
Would you mind telling me the reported pIC50 of each entry?
One number for each entry, as −log10 of the molar value.

Known pIC50 results, listed for orientation:
- Molecule: "CC(C)N1C2CCC1CC(N1CCC(c3cc(F)c4nc(-c5ccc(S(C)(=O)=O)cc5)cn4c3)CC1)C2 (single isomer, unassigned) [Example 68]"
  pIC50: 6.96
- Molecule: "CS(=O)(=O)c1ccc(-c2cn3cc(C4CCN(C5CC6CCC(C5)N6C5COC5)CC4)cc(F)c3n2)cc1 (single isomer, unassigned) [Example 120]"
  pIC50: 6.15
- Molecule: "COc1ccc(-c2cn3c(n2)CCC(C2CCN(C4CCN(C(=O)C5CC5)CC4)CC2)C3)cc1OC (racemic) [Example 42]"
  pIC50: 7.10
- Molecule: "COc1ccc(-c2cn3c(n2)CCC(C2CCN(C4CC5(C4)CN(C4CCC4)C5)CC2)C3)cc1OC (single isomer, unassigned) [Example 49]"
  pIC50: 7.66
- Molecule: "COc1ccc(-c2cn3c(n2)CCC(C2CCN(C4CC5(C4)CN(C4CCC4)C5)CC2)C3)cc1OC (racemic) [Example 48]"
  pIC50: 6.95

Dear colleague, could you send me pIC50 for each of the items below? Thanks.
1. Cc1cc(C2CCN(C3CCN(C4CC4)CC3)CC2)cn2cc(-c3ccc(S(C)(=O)=O)cc3)nc12
2. COc1ccc(-c2cn3cc(C4CCN(C5CCN(C(C)C)CC5)CC4)cc(C)c3n2)cc1F
3. COc1ccc(-c2cn3cc(C4CCN(C5CCN(C(C)C)CC5)CC4)ccc3n2)cc1OC
4. COc1ccc(-c2cn3c(n2)CCC(C2CCN(C4CCN(CC5CC5)CC4)CC2)C3)cc1OC (single isomer, unassigned) [Example 56]

Completion:
[6.88, 6.78, 7.11, 6.27]
